# measured target: Fructose-1,6-bisphosphatase 1 (Homo sapiens, UniProt P09467)
// reported IC50 for each item listed
# number only, unit µM dropped from output

Below: 2 compounds and their reported IC50.
Nc1ncnc2c1ncn2[C@@H]1O[C@H](COP(=O)(O)O)[C@@H](O)[C@H]1O [ADENOSINE PHOSPHATE] :: 2.6
O=c1cc(-c2ccc(O)cc2)oc2cc(O)c(O)c(O)c12 [SCUTELLAREIN] :: 38.2

Now for a further compound.
[Q] Checklist item: IC50 tested on Fructose-1,6-bisphosphatase 1 (Homo sapiens, UniProt P09467), entry O=c1c(O)c(-c2ccc(O)c(O)c2)oc2c(O)c(O)cc(O)c12 [GOSSYPETIN] , value?
[A] 24

----------
# measured target: Fructose-1,6-bisphosphatase 1 (Homo sapiens) (UniProt P09467)
# assay overview: Inhibition of human liver FBP1 at 200 uM incubated for 5 mins by fluorescence method relative to control
# inhibition annotations

O=c1cc(-c2ccccc2)oc2c(O)c(O)cc(O)c12 :: < 20%
O=c1c(Cl)c(-c2ccc(O)c(O)c2)oc2cc(O)cc(O)c12 :: < 20%
COc1cc2oc(-c3ccccc3)cc(=O)c2c(OC)c1OC :: < 20%
O=c1c(O)c(-c2cc(O)c(O)c(O)c2)oc2cc(O)cc(O)c12 :: < 20%

[Q] Field request: inhibition | item: O=c1c(O)c(-c2ccc(O)c(O)c2)oc2cc(O)c(O)c(O)c12
[A] 37%

[Q] And what about the molecule O=c1c(O)c(-c2ccc(O)cc2)oc2cc(O)ccc12 ?
[A] < 20%

----------
# measured target: Fructose-1,6-bisphosphatase 1 (Homo sapiens) (UniProt P09467)
# Sequence (whole entry): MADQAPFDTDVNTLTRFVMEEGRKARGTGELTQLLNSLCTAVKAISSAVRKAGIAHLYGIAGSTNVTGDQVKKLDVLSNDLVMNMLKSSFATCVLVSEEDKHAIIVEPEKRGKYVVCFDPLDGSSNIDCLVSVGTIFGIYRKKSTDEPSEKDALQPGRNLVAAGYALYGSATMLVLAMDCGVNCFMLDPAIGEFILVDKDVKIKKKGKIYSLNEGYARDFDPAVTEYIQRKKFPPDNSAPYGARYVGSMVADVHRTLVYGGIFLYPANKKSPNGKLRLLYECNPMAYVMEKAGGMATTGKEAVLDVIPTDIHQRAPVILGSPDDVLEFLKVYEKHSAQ
# assay overview: Inhibition of human liver FBP1 at 200 uM incubated for 5 mins by fluorescence method relative to control
inhibition values for the compounds below.

O=c1cc(-c2ccc(O)cc2)oc2ccccc12 :: < 20%
COc1ccc2c(=O)c(O)c(-c3ccc(OCc4ccccc4)c(OCc4ccccc4)c3)oc2c1OC :: < 20%
O=c1c(O)c(-c2cccc(O)c2)oc2cc(O)cc(O)c12 :: < 20%
O=C1C[C@@H](c2ccc(O)c(O)c2)Oc2cc(O)cc(O)c21 :: < 20%
O=c1c(Cl)c(-c2ccc(O)c(O)c2)oc2c(Cl)c(O)cc(O)c12 :: < 20%

[Q] Entry COc1cc(-c2cc(=O)c3c(O)cc(O)cc3o2)ccc1O has what inhibition?
[A] < 20%

[Q] Field entry: O=c1cc(-c2ccc(O)c(O)c2)oc2ccccc12
[A] 25%

[Q] Try O=c1cc(-c2ccc(O)c(O)c2)oc2cccc(O)c12 next.
[A] < 20%

[Q] Then this compound: COc1ccc(-c2oc3c(OCc4ccccc4)c(OCc4ccccc4)ccc3c(=O)c2O)cc1OC
[A] < 20%

[Q] Param item: COc1ccc(-c2oc3c(O)c(O)ccc3c(=O)c2O)cc1OC
[A] 33%

[Q] Here is the next compound: O=C1C[C@@H](c2ccc(O)cc2)Oc2cc(O)cc(O)c21
[A] < 20%

[Q] Try this compound too: COc1ccc(-c2oc3ccccc3c(=O)c2O)cc1OC
[A] < 20%

[Q] Cool, now O=c1cc(-c2ccccc2)oc2cccc(O)c12
[A] < 20%
